Please respond with reported IC50 for every item in the list.
target: Serine/threonine-protein kinase pim-2 (Homo sapiens, UniProt Q9P1W9)
Sequence (Q9P1W9 whole entry): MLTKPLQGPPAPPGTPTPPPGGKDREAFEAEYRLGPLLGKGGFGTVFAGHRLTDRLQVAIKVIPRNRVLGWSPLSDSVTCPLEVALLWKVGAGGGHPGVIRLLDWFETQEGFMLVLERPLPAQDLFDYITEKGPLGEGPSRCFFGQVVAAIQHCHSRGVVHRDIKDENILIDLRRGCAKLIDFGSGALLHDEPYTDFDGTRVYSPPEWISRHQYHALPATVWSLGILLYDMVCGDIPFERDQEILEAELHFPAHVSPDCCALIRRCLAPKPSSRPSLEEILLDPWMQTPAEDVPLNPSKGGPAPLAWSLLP
Give bare numbers, in µM.

>>> print(df.to_string())
                                item_smiles                     target_or_test_system  recorded_value
0  C[C@@H]1O[C@@H](Oc2c(-c3ccc(O)c(O)c3)oc3cc(O)cc(O)c3c2=O)[C@H](O)[C@H](O)[C@H]1O  Serine/threonine-protein kinase pim-2 (Homo sapiens, UniProt Q9P1W9)              25

Moving on to the next molecule.
q: Request body: readout IC50, system Serine/threonine-protein kinase pim-2 (Homo sapiens, UniProt Q9P1W9), query "NCCc1ccc(OC(=O)c2cc(O)c(O)c(O)c2)cc1" . Return the value.
a: 161
